# Measurement target: T1, human DLL3-his protein (human, UniProt Q9NYJ7 27-492)
# T1 construct: also called human DLL3 protein; DLL3 antigen protein; not shown: His tag
# T1 sequence: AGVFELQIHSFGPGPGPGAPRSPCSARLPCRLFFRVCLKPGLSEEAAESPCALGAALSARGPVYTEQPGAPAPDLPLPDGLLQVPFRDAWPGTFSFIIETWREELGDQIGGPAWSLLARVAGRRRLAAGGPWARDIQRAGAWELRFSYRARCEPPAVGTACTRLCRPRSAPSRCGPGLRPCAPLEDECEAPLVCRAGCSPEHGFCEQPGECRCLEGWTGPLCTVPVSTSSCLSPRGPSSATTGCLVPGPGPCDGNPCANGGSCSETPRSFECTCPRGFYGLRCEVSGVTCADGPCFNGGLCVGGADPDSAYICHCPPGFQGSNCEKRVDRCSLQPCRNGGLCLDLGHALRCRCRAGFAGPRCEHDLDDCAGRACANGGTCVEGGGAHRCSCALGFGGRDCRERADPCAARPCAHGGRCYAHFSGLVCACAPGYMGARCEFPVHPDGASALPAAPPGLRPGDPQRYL
# Measurement description: ELISA
Observed property: binding result

* mab010 scFv-hFc (Fc fusion, human-murine chimeric scFv-hFc, VL-linker-VH-human IgG1 Fc; not shown: linker; Fc fragment of human IgG1) scFv (part 1 of 2): DIQMTQSPASLSVSVGETVTITCRASENINSNLAWYQQKQGKSPQLLVYAATNLADGVPSRFSGSGSGTQFSLKISGLQSEDFGSYYCQHFWGLPWTFGGGTKLEIR scFv (part 2 of 2): QVQLQQSGAELARPGASMKLSCKASGYTFTSYGISWVKQITGQGLEWIGEIFPRSGNTYDNENFRGKATLTADKSSSTAYLEVRSLTSEDSAVYFCARTTVFAPYYFDYWGQGTTLTVSS | binds
* Hab006VL1VH4-hFc (Fc fusion, humanized mab006, VL-linker-VH-human IgG1 Fc; also called Hab006VL1VL4-hFc; not shown: linker; human IgG1 Fc fragment) scFv (part 1 of 2): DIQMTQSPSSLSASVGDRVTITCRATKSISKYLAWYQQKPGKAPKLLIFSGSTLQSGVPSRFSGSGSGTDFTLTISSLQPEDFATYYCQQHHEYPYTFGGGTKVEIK scFv (part 2 of 2): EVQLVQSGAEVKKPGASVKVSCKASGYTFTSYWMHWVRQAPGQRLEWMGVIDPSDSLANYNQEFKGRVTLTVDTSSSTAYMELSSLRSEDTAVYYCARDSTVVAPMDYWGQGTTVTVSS | binds
* Hab014VL2VH1-hFc (Fc fusion, humanized mab014, VL-linker-VH-human IgG1 Fc; not shown: linker; human IgG1 Fc fragment) scFv (part 1 of 2): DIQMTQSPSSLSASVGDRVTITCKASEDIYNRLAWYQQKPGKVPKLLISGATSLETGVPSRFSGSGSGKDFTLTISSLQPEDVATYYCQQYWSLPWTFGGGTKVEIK scFv (part 2 of 2): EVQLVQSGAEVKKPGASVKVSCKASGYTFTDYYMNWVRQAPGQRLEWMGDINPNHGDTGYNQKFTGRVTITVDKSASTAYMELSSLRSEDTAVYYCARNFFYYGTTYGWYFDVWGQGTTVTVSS | binds
